- Test system: LOX IMVI melanoma
- Measurement notes: NCI tumour cell line growth inhibition, 48 h
Observable: TGI

Recorded results for 3 compounds are shown here.
Compound	TGI
CC(C)[Si](OC1=C(C(=O)N(C)c2ccccc2Cl)CCC1)(C(C)C)C(C)C	33.7 µM
C[C@H]1CC(=O)C2=CCCC3(SCCCS3)[C@@H]2[C@H]1CO	> 100 µM
O=C(CCCc1ccccn1)c1ccccc1	> 100 µM

Enquiry: Can you share its TGI? I mean this compound: C[C@@H](NC(=O)OC1C=CC2(CC1)C(=O)N(C)c1ccccc12)c1cccc2ccccc12 (some centres undefined)
Return: > 25 µM

Enquiry: How about CC[C@@H](C(=O)[C@@H](C)[C@@H](O)[C@H](C)[C@@H]1O[C@@H]([C@@H](CC)C(=O)O)CC[C@@H]1C)[C@H]1OC2(C=C[C@@H](O)[C@]3(CC[C@@](C)([C@H]4CC[C@](O)(CC)[C@H](C)O4)O3)O2)[C@H](C)C[C@@H]1C (some centres undefined) ?
Return: > 19 µM

Enquiry: How about Cc1ccc2c(=O)c(-c3nnc(N)s3)c[nH]c2n1 ?
Return: > 100 µM

Enquiry: How about Cc1c(CCCl)c(N=[N+]=[N-])n2c(nc3ccccc32)c1C#N ?
Return: 2.37 µM

Enquiry: How about Cc1ccc(-n2c(Cn3nnc(-c4cccnc4)n3)nn(C3OC(COC(=O)c4ccccc4)C(OC(=O)c4ccccc4)C3OC(=O)c3ccccc3)c2=S)cc1 (centres undefined) ?
Return: > 100 µM

Enquiry: How about COC(=O)/C=C1/N=C(N(C)/N=C/c2ccccc2)NC1=O ?
Return: > 100 µM

Enquiry: How about O=C(Nc1ccccc1C(=O)O)/C(=C/c1ccccc1)NC(=O)c1ccccc1 ?
Return: > 100 µM

Enquiry: How about CC1=C(c2cc(C(=O)Nc3ccc(Cl)c(Cl)c3)nc(N)n2)Sc2ccccc2N1 ?
Return: > 100 µM
